Cited source: ChEMBL document CHEMBL3526103

Catalogue of log10(hepatocyte CLint at 10 µM) values
method: Intrinsic clearance in human hepatocytes from chimeric mouse with humanized liver assessed per 10^6 cells at 10 uM after 0.25 to 2 hrs by LC-MS/MS method
Assay type: ADME, cell-based, Hepatocyte
experimentalParameters: read-out: CLH
measuredAttribute: log10(hepatocyte CLint at 10 µM) (log10 of the value in µL/min/1e6 cells)

1) CCN(C(C)=O)c1cccc(-c2ccnc3c(C#N)cnn23)c1; 0.36
2) Nc1ccc(S(=O)(=O)c2ccc(N)cc2)cc1; 0.36
3) CC1=C(CC(=O)O)c2cc(F)ccc2/C1=C\c1ccc([S+](C)[O-])cc1 (stereo not drawn); 0.30
4) CC(=O)C[C@@H](c1ccccc1)c1c(O)c2ccccc2oc1=O; 0.08
5) O=C(O)Cc1ccccc1Nc1c(Cl)cccc1Cl; 1.39
6) Nc1ncc2ncn(CCC(CO)CO)c2n1; 0.72
7) CN1CCN2c3ncccc3Cc3ccccc3C2C1 (stereo not drawn); 0.80
8) Nc1nnc(-c2cccc(Cl)c2Cl)c(N)n1; 0.15
